Here's a roundup of pIC50 values tested on 3',5'-cyclic-AMP phosphodiesterase 4D (Homo sapiens), taken from various published works.
pIC50: −log10 of the molar value.
Quantity: pIC50

molecule=Cn1nc(-c2ccc(Cl)cc2)s/c1=N\c1cccc(F)c1 test_value="< 4.00"
molecule="CCC(C)n1cc(-c2nc3ccccc3nc2Cl)c2cc(OC)ccc21 (configuration not stated)" test_value=5.31
molecule=NCCOCCOc1ccc(Cl)c2c1C1(CCCCC1)NC(=O)N2 test_value=4.00
molecule=O=C(O)[C@H]1CC[C@H](c2cc3cccnc3c(-c3cccc(OC(F)(F)F)c3)n2)CC1 test_value=7.62
molecule=COc1ccc(-c2ccnc3cc(-c4cccc(Br)c4)nn23)cc1OC1CCCC1 test_value=7.52
molecule=Cn1nc(-c2ccc(Cl)cc2)s/c1=N\c1ccccc1O test_value="< 4.00"
molecule=CC(C)c1n[nH]c2c(=O)[nH]c(Cc3ccccc3OCCN3CCOCC3)nc12 test_value="< 5.00"
molecule=C=CCc1c(C)nc(-c2ccccc2)nc1Nc1ccc(CC(=O)O)cc1 test_value="< 5.00"
molecule=COc1c(OCc2cccc(C)c2)cc2oc3cc4c(c(OC/C=C/C(=O)O)c3c(=O)c2c1CC=C(C)C)C=CC(C)(C)O4 test_value="< 6.00"
molecule="CC1CCc2c(sc(NC(=O)c3cccc([N+](=O)[O-])c3)c2C(N)=O)C1 (configuration not stated)" test_value="< 5.60"
molecule=CCOC(=O)CCCCCCOc1cc2oc3cc4c(c(O)c3c(=O)c2c(CC=C(C)C)c1OC)C=CC(C)(C)O4 test_value="< 5.00"
molecule=OCC1CCN(c2ncccc2Oc2ccc(Nc3nc4ccccc4[nH]3)cc2)CC1 test_value="< 5.00"

----------
pIC50: −log10 of the molar value.
Here's a roundup of pIC50 values tested on UniProt:Q08499, taken from various published works.
Quantity: pIC50

sample_smiles=COc1cc2c(-c3cc(OCC4CC4)cc(OCC4CC4)c3)nc(OCCO)nc2cc1OCCO value_modifier== test_value=7.05
sample_smiles=COc1ccc(C(=S)Nc2c(Cl)cccc2Cl)cc1OC1CCCC1 value_modifier== test_value=6.70
sample_smiles=COc1ccc(-c2cc3nccc(-c4ccc(OC)c(OC5CCCC5)c4)n3n2)cc1 value_modifier== test_value=7.22
sample_smiles=CCNc1nc2oc3c(NCCCN4CCCC4=O)ncnc3c2c2c1CCC(C)(C)C2 value_modifier== test_value=8.82
sample_smiles=CS(=O)(=O)c1ccc(OCc2cc(-c3cccc(OC(F)F)c3)c3ncccc3c2)cc1 value_modifier== test_value=9.10
sample_smiles=COc1ccc(C(=O)Nc2ccc3cccc(O)c3n2)cc1OC1CCCC1 value_modifier== test_value=5.33
sample_smiles=Cc1cc(C)n(C(=O)c2ccc(-c3ccc(F)cc3)o2)n1 value_modifier== test_value=4.31
sample_smiles=CC(C)c1cc(-c2cccc(/C=C(/c3ccc(C(C)(C)O)cc3)c3ccc(S(C)(=O)=O)cc3)c2)c2ncccc2c1 value_modifier== test_value=9.30
sample_smiles=C=C(C)c1ccc2c(c1)CC[C@H]1[C@](C)(C(=O)O)CCC[C@]21C value_modifier== test_value=5.48
sample_smiles=C=CCc1cc2cccnc2c(-c2cccc([N+](=O)[O-])c2)n1 value_modifier== test_value=8.15
sample_smiles=Cc1cc(C)n(C(=O)c2ccc(-c3c(F)cccc3F)o2)n1 value_modifier== test_value=4.05
sample_smiles=Cc1nc(-c2cnn(C)c2-c2ccc(C(F)(F)F)cc2)c2c(N3CC(F)C3)ncnn12 value_modifier=< test_value=4.52
sample_smiles=COc1ccc(-c2nc(C(=O)n3nc(C)cc3C)co2)cc1 value_modifier== test_value=4.97
sample_smiles=COc1c(OCCCCCC(=O)O)cc2oc3cc4c(c(O)c3c(=O)c2c1CC=C(C)C)C=CC(C)(C)O4 value_modifier== test_value=7.12
sample_smiles=COc1c(OCCCN2CCCC2)cc2oc3cc4c(c(O)c3c(=O)c2c1CC=C(C)C)C=CC(C)(C)O4 value_modifier=< test_value=6.00
sample_smiles=CC(C)Nc1nc2oc3c(NCCCN4CCCC4=O)ncnc3c2c2c1CCC(C)(C)C2 value_modifier== test_value=10.00

----------
Here's a roundup of IC50 values tested on 3',5'-cyclic-AMP phosphodiesterase 4D (Homo sapiens, UniProt Q08499), taken from various published works.
Sequence (Q08499 whole entry): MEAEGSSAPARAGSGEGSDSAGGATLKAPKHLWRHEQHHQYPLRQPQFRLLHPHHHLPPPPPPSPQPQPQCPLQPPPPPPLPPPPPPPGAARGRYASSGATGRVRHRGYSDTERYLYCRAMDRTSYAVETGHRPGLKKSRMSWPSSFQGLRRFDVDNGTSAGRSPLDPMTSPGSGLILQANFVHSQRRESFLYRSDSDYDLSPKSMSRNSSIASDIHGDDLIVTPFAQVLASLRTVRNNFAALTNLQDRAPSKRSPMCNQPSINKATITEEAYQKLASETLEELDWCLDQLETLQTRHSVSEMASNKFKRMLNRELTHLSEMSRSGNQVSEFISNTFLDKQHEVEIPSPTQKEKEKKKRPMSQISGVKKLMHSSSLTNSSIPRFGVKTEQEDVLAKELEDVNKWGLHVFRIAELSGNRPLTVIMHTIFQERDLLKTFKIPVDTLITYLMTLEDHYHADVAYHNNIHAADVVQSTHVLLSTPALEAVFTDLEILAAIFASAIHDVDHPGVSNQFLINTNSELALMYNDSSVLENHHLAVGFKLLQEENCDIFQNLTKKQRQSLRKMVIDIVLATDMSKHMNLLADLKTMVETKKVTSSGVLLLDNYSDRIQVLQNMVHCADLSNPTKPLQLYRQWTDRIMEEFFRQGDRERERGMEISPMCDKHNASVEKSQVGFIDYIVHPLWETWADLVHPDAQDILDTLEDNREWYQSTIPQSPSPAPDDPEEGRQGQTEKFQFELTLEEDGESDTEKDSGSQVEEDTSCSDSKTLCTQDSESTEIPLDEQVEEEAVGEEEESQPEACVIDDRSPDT
Quantity: IC50

compound=C=CCc1c(C)nc(-c2ccc(C)cc2)nc1Nc1ccc(C(=O)O)cc1 study_target="3',5'-cyclic-AMP phosphodiesterase 4D (Homo sapiens, UniProt Q08499)" test_value="2.8 µM"
compound=COc1ccc(C(=O)N2CCc3cc(OC)c(OC4CCCC4)cc3C2)cc1OC study_target="3',5'-cyclic-AMP phosphodiesterase 4D (Homo sapiens, UniProt Q08499)" test_value="18.3 µM"
compound="CC(C)(C)C1CCc2c(sc(NC(=O)c3ccncc3)c2C(N)=O)C1 (stereo not drawn)" study_target="3',5'-cyclic-AMP phosphodiesterase 4D (Homo sapiens, UniProt Q08499)" test_value="0.316 µM"
compound="CN(C)CC(O)COc1ccc(Cl)c2c1C1(CCCCC1)NC(=O)N2 (stereo not drawn)" study_target="3',5'-cyclic-AMP phosphodiesterase 4D (Homo sapiens, UniProt Q08499)" test_value="55 µM"
compound=COc1cc2nc(C)nc(-c3cc(O)cc(O)c3)c2cc1OC study_target="3',5'-cyclic-AMP phosphodiesterase 4D (Homo sapiens, UniProt Q08499)" test_value="2 µM"
compound=CCOC(=O)CCCCOc1cc2oc3cc4c(c(O)c3c(=O)c2c(CC=C(C)C)c1OC)C=CC(C)(C)O4 study_target="3',5'-cyclic-AMP phosphodiesterase 4D (Homo sapiens, UniProt Q08499)" test_value="> 10 µM"
compound=NCC[C@@H](Oc1cccc2ccccc12)c1cccs1 study_target="3',5'-cyclic-AMP phosphodiesterase 4D (Homo sapiens, UniProt Q08499)" test_value="> 100 µM"
compound=CN(C)CCN(C)C(=O)c1ccc(-c2nn(C)/c(=N/C3CCCCC3)s2)cc1 study_target="3',5'-cyclic-AMP phosphodiesterase 4D (Homo sapiens, UniProt Q08499)" test_value="> 101 µM"
compound=COc1c(OCCCCCCCBr)cc2oc3cc4c(c(O)c3c(=O)c2c1CC=C(C)C)C=CC(C)(C)O4 study_target="3',5'-cyclic-AMP phosphodiesterase 4D (Homo sapiens, UniProt Q08499)" test_value="> 10 µM"
compound=COc1c(OCc2cccc(F)c2)cc2oc3cc4c(c(OC/C=C/C(=O)O)c3c(=O)c2c1CC=C(C)C)C=CC(C)(C)O4 study_target="3',5'-cyclic-AMP phosphodiesterase 4D (Homo sapiens, UniProt Q08499)" test_value="> 1 µM"
compound=COc1cc(-c2nn(C)/c(=N/C3CCCCC3)s2)ccc1C(N)=O study_target="3',5'-cyclic-AMP phosphodiesterase 4D (Homo sapiens, UniProt Q08499)" test_value="> 101 µM"
compound=CCOC(=O)CCCCCCCCOc1cc2oc3cc4c(c(O)c3c(=O)c2c(CC=C(C)C)c1OC)C=CC(C)(C)O4 study_target="3',5'-cyclic-AMP phosphodiesterase 4D (Homo sapiens, UniProt Q08499)" test_value="> 10 µM"
compound=CC(C)(O)C1CCN(c2nccnc2Oc2ccc(Nc3nc4ccccc4s3)cc2)CC1 study_target="3',5'-cyclic-AMP phosphodiesterase 4D (Homo sapiens, UniProt Q08499)" test_value="> 10 µM"

----------
Here's a roundup of IC50 values tested on 3',5'-cyclic-AMP phosphodiesterase 4D (Homo sapiens), taken from various published works.
Threshold check on IC50: strictly below 30 nM is condition met; on or above 30 nM is condition not met.

molecule=OCC1CCN(c2nnccc2Oc2ccc(Nc3nc4ccccc4[nH]3)cc2)CC1 discrete_label="condition not met"
molecule="CCCCCC1CCc2c(sc(NC(=O)c3ccccc3[N+](=O)[O-])c2C(N)=O)C1 (stereo not drawn)" discrete_label="condition not met"
molecule=CC1(C)CCc2c(-c3ccco3)nc3sc4c(NCCN5CCOCC5)ncnc4c3c2C1 discrete_label="condition met"
molecule=Cn1nc(-c2ccc(Cl)cc2)s/c1=N\c1cccc(C(=O)O)c1O discrete_label="condition not met"
molecule=C=CCOc1cccc(-c2cc3nccc(-c4ccc(OC(F)F)c(OCC5CC5)c4)n3n2)c1 discrete_label="condition not met"
molecule=C=CCc1c(C)nc(-c2ccc(OC)cc2)nc1Nc1ccc(CC(=O)O)cc1 discrete_label="condition not met"
molecule=CCOc1nc(Cl)cc2nn(CCC(=O)O)cc12 discrete_label="condition met"
molecule="CC(O)C1CCN(c2nccnc2Oc2ccc(Nc3nc4ccccc4s3)cc2)CC1 (stereo not drawn)" discrete_label="condition not met"

----------
Here's a roundup of IC50 values tested on 3',5'-cyclic-AMP phosphodiesterase 4D (Homo sapiens, UniProt Q08499), taken from various published works.
Quantity: IC50 (nM)

compound=FC(F)Oc1ccc(-c2ccnc3cc(-c4cccc(N5CCCCC5)c4)nn23)cc1OCC1CC1 test_value=100
compound=C[C@@H]1COCCN1c1nc(N2CCOC[C@@H]2C)nc2[nH]c(-c3cc[nH]n3)nc12 test_value=4900
compound="CC(C)c1cc(-c2cccc(C(Cc3ccncc3)c3ccc(Cl)cc3)c2)c2ncccc2c1 (centres undefined)" test_value=38
compound=CCN(C)c1nc2oc3c(NCCN4CCOCC4)ncnc3c2c2c1CCC(C)(C)C2 test_value=14
